tested on: MS2 coat protein; assay: apparent KD of MS2 coat protein; designed switch direction (-1 OFF switch, 1 ON switch): -1; higher = weaker reporter binding; conditions: input ligand: FMN 200 uM
Would you mind telling me the reported apparent KD of MS2 coat protein of each entry?
Give bare numbers, in nM.

{"SEQUENCE_INPUT": "AGCUGUGGCCGAGGAUAUCCAGCCUUAAAUACCGACGUAUAGUCGGACAUGAGGAUCACCCAUGUGGAGAAGGUGGUCUCAGCA [Eli eng2 - 041] (Eterna round: R96, puzzle: Exclusion NG 2)", "apparent KD of MS2 coat protein, nM": 93.1}

Next item in the queue.
Record UAUUAGUAAGGAUAUGCGACGUAGGACGAAAGUCCUACGUCGCAGAAGGUACAUGAGGAUCACCCAUGUCUAUU [Mod of Fisker 11 - Jieux - Exclusion 4] (Eterna round: R97, puzzle: Exclusion 4) , field apparent KD of MS2 coat protein: 20.5

---

test system: MS2 coat protein; assay: apparent KD of MS2 coat protein; designed switch direction (-1 OFF switch, 1 ON switch): -1; higher = weaker reporter binding; conditions: input ligand: none
# thresholds on apparent KD of MS2 coat protein define classes: lower range (below 40 nM), middle range (40 nM to below 90 nM), upper range (90 nM or more)

{"SEQUENCE_INPUT": "AGAGUACUGCGAGGAUAUACAUGAGGAUCACCCAUGUGGUGGUGUGAGGCUUUGCCUCACACCAUGUAGAAGGCGCAGUACUCA [Mat - Exclusion NG 2 - Mod of JL - D19] (Eterna round: R96, puzzle: Exclusion NG 2)", "EXPERIMENTAL_TARGET": "MS2 coat protein", "ASSIGNED_CATEGORY": "lower range"}
{"SEQUENCE_INPUT": "AGCUGUGAGUGAGGAUAUCUGCUGUUGUCAGUCGGAGAAGGCGCGGACAGAACAUGAGGAUCACCCAUGUGUAUGGGCGGCCUC [Usatia] (Eterna round: R96, puzzle: Exclusion NG 1)", "EXPERIMENTAL_TARGET": "MS2 coat protein", "ASSIGNED_CATEGORY": "middle range"}
{"SEQUENCE_INPUT": "GAGCACUGCCGAGGAUAUCCACAUGAGGAUCACCCAUGUAGUGAAAAGUCCCAGUAGAACCAAAUGGAGAAGGUGGCAAGAUAU [Eternabot solution 21] (Eterna round: R96, puzzle: Exclusion NG 2)", "EXPERIMENTAL_TARGET": "MS2 coat protein", "ASSIGNED_CATEGORY": "lower range"}
{"SEQUENCE_INPUT": "GGUCGACAUGAGGAUCACCCAUGUCAGGAUAUCGUCACUGGAGCUUCGGCUCCAGUGACGAGAAGGGAUAUGAU [E1/17-A1] (Eterna round: R97, puzzle: Exclusion 1)", "EXPERIMENTAL_TARGET": "MS2 coat protein", "ASSIGNED_CATEGORY": "lower range"}
{"SEQUENCE_INPUT": "AAGUCGACGGUGAGGAUAUUGGUUGAACGACAGAUUAAGAAGGUACAUGAGGAUCACCCAUGUGGGUAACGUUG [Brourd's EX4 #76] (Eterna round: R97, puzzle: Brourd's mod of Exclusion 4)", "EXPERIMENTAL_TARGET": "MS2 coat protein", "ASSIGNED_CATEGORY": "middle range"}

Class (by measured apparent KD of MS2 coat protein) for GGCCGUAAUAAGGAUAUCACUAGCCUCGGCUAGUGAGAAGGUAUUACAUGAGGAUCACCCAUGUGGUCAGGCCA [E6/4-B2] (Eterna round: R97, puzzle: Exclusion 6) upper range

Class (by measured apparent KD of MS2 coat protein) for AAUAAUUGUGACUUGGGUGACAUGAGGAUCACCCAUGUCACAAGCUUGUUGCUCGCCUUAUAAUUAACCCAUGUCAC [LRO Sensor-off var1-26 mod of Stov1-13-A1 by Brourd] (Eterna round: R97, puzzle: Sensor, turn-off variant 1) middle range

Class (by measured apparent KD of MS2 coat protein) for GGUCAGCUAGGAUAUACAUGAGGAUCACCCAUGUACUGACCCAUGCGGUAGUCCGCAUGUAGAAGGAGCAAAAU [Cebiin] (Eterna round: R97, puzzle: Exclusion 3) lower range

Class (by measured apparent KD of MS2 coat protein) for AUAAUGUAAGGAUAUCAGUCGUACAGCCUCGGCUGUACGACUGAGAAGGUACAUGAGGAUCACCCAUGUGAUCA [E4/8-A2] (Eterna round: R97, puzzle: Exclusion 4) upper range

Class (by measured apparent KD of MS2 coat protein) for AGAGGGCGAGGAUAUGCUAAAAGUGGUGCAGUUGUUCGUCGACUUGAGGAUCACCCAAGUAGAAGGCGCACUUC [Sointeer] (Eterna round: R97, puzzle: Exclusion 2) lower range

Class (by measured apparent KD of MS2 coat protein) for CGUCUGUAAGGAUAUGGUUGCAUCGACAUGAGGAUCACCCAUGUAACGUGGGACUAGUGAUUAGAAGGUACGAACG [EX5 #61] (Eterna round: R97, puzzle: Exclusion 5) upper range

Class (by measured apparent KD of MS2 coat protein) for CUAACGAAAGGAUAUAUGGCAUGAGACAUGAGGAUCACCCAUGUGAACCACCUACAGUACAUAGAAGGUUCGCUAG [Eternabot (Original) Solution 18] (Eterna round: R97, puzzle: Exclusion 5) upper range

Class (by measured apparent KD of MS2 coat protein) for GUAUAACAUGAGGAUCACCCAUGUGAGGAUAUGCGAAUUUCAUCAAAAGAUGAAAUUUGCAGAAGGCACAGUAC [Omei Ex1 A12] (Eterna round: R97, puzzle: Exclusion 1) middle range

Class (by measured apparent KD of MS2 coat protein) for UACAUGAGGAUCACCCAUGUUUUGUCGUGUAUGGUAUUUAUCUAGGAUAUCAAUCUAUUUAGUUAUGAGAAGGAGAAUAUUAAU [JMF's solution 54] (Eterna round: R96, puzzle: Exclusion NG 3) lower range

Class (by measured apparent KD of MS2 coat protein) for AGGUGUAGAGGAUAUCUAUCCUCCCACAUGAGGAUCACCCAUGUCCUGGUCACCAAGGACGGAGAAGGCUACACCA [Omei Ex5 D19] (Eterna round: R97, puzzle: Exclusion 5) upper range

Class (by measured apparent KD of MS2 coat protein) for ACAUGAGGAUCACCCAUGUGACAAUAAUGGCUGAUACAGAAACAGGAUAUUCGUGAAUAUCUAACGAAGAAGGGUUAUGACUGG [Deportation 68 - Jieux - Exclusion NG 3] (Eterna round: R96, puzzle: Exclusion NG 3) middle range

Class (by measured apparent KD of MS2 coat protein) for AUGUGCACGCUGCGGUCCUACAUGAGGAUCACCCAUGUGGUCUGGUGGCGUGGGUCACCGGACUUGGCUCGUCUUGA [salish99_S_TOV1_R5_055] (Eterna round: R97, puzzle: Sensor, turn-off variant 1) middle range

Class (by measured apparent KD of MS2 coat protein) for CAGAGGAGACGGAGAUCCAACAUGAGGAUCACCCAUGUCUCAAAAGCUUUUUGCUUGUCUUAUCCUCCUCUCUUCAC [Mat - Sensor, turn-off var - Eli Mod - D59] (Eterna round: R97, puzzle: Sensor, turn-off variant 1) lower range
